molecular target: TYK2 (Homo sapiens (Human), UniProt P29597); test: Biochemical potency on Tyk2, TR-FRET LANCE Ultra kinase assay (compounds 1-92); conditions: ATP at Km, read-out: Tyk2 inhibitory activity (pIC50 class) (converted)
Sequence (P29597 whole entry): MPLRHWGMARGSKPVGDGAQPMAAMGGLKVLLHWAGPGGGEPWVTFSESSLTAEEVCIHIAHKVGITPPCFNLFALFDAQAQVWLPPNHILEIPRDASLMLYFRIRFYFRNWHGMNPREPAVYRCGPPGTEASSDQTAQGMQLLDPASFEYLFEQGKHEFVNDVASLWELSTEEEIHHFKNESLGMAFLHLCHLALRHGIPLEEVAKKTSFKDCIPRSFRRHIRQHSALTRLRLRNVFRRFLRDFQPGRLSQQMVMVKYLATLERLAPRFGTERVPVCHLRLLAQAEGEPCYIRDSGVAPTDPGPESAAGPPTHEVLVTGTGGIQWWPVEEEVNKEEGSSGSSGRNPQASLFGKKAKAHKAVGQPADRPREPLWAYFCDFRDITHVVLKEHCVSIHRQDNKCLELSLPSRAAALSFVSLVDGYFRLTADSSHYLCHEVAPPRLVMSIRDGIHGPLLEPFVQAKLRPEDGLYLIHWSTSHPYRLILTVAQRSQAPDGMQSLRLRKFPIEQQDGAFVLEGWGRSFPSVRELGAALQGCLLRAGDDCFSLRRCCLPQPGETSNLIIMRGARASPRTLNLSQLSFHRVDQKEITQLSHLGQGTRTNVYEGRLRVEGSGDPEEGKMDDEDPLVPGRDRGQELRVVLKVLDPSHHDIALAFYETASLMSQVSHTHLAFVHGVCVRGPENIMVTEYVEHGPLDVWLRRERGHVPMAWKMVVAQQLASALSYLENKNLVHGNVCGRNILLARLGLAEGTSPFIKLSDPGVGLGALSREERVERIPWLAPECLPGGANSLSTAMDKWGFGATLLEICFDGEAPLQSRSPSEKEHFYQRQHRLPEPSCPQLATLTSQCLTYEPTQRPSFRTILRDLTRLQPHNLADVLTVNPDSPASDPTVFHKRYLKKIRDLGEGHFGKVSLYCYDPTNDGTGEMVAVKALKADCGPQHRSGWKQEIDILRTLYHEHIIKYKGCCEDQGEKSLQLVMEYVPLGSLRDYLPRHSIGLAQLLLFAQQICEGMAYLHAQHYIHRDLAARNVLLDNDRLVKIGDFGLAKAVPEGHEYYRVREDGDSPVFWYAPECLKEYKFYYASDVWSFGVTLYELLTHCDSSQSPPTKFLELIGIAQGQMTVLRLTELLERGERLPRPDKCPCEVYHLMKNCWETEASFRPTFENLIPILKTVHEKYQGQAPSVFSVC
parameter: IC50

Problem: # get_value(readout= IC50, system= TYK2 (Homo sapiens (Human), UniProt P29597)) for `COc1cc(NS(C)(=O)=O)ccc1-n1nc(C(=O)NCCN2CCOCC2)c2cnc(-c3cnn4cccnc34)cc21`
Result: 5.01 to 50.1 nM

Problem: # get_value(readout= IC50, system= TYK2 (Homo sapiens (Human), UniProt P29597)) for `CCCS(=O)(=O)Nc1ccc(-n2nc(NC)c3cnc(Nc4ncc[nH]c4=O)cc32)c(OC)c1`
Result: 5.01 to 50.1 nM

Problem: # get_value(readout= IC50, system= TYK2 (Homo sapiens (Human), UniProt P29597)) for `COc1cc(NS(C)(=O)=O)ccc1-n1nc(NCCN2CCN(C)CC2)c2cnc(-c3cnn4cccnc34)cc21`
Result: 5.01 to 50.1 nM

Problem: # get_value(readout= IC50, system= TYK2 (Homo sapiens (Human), UniProt P29597)) for `COc1cc(NC(=O)c2ccccc2)ccc1-n1nc(NCCN(C)C)c2cnc(-c3cnn4cccnc34)cc21`
Result: > 50.1 nM

Problem: # get_value(readout= IC50, system= TYK2 (Homo sapiens (Human), UniProt P29597)) for `COc1cc(NS(C)(=O)=O)ccc1-n1nc(NCCN2CCOCC2)c2cnc(-c3cnc4cccnn34)cc21`
Result: 5.01 to 50.1 nM

Problem: # get_value(readout= IC50, system= TYK2 (Homo sapiens (Human), UniProt P29597)) for COc1cc(NS(=O)(=O)C2CCOC2)ccc1-n1nc(C)c2cnc(-c3cnn4cccnc34)cc21 (stereo not shown)
Result: 5.01 to 50.1 nM

Problem: # get_value(readout= IC50, system= TYK2 (Homo sapiens (Human), UniProt P29597)) for `CNCC(=O)Nc1nn(-c2ccc(NS(C)(=O)=O)cc2OC)c2cc(-c3cnn4cccnc34)ncc12`
Result: 5.01 to 50.1 nM
